- EXPERIMENT NOTES: Dog PK study #3 (Compound A PO once daily 5 days, 5/10/20 mg/kg; PK, body weight, hematology)
- Assay type: in vivo, beagle dogs
- EXPERIMENTAL SETUP: male, beagle, dog, plasma, po, 10 mg/kg, Day 5, 10 mg/kg dose PO; mean
MEASURE NAME: AUC(0-t) (ng·h/mL)
Give the quantity in ng·h/mL, number only.

Q: Reported AUC(0-t), compound Cn1cc(-c2ccccc2)c(-c2cn(C)c(=O)c3[nH]c(-c4cnn(C(F)(F)F)c4)cc23)cc1=O : ____
Result: 28300

###

- EXPERIMENT NOTES: Rat PK study #2 (Compound A PO 5 mg/kg, DMSO/PEG-400/water)
- Type: in vivo, SD rats
- EXPERIMENTAL SETUP: male, Sprague-Dawley, rat, plasma, po, 5 mg/kg, SD rats, PO 5 mg/kg, DMSO/PEG-400/Milli-Q water formulation, individual animals
MEASURE NAME: Tmax (h)
Supply the numeric figure in h, leaving out any unit text.

Q: Report Tmax for Cn1cc(-c2ccccc2)c(-c2cn(C)c(=O)c3[nH]c(-c4cnn(C(F)(F)F)c4)cc23)cc1=O [Compound A] please.
Result: 8
